Reference for the values: patent US4649150A

Items are presented alongside their recorded EC50.
molecular target: histamine H2 -receptors (Cavia porcellus, UniProt P47747); construct: isolated guinea pig atria suspended in an organ bath; assay: In vitro inhibitory activity in histamine-induced tachycardia (guinea pig atria); inhibition of the histamine-evoked positive chronotropic effect; conditions: isolated guinea pig atria, Krebs-Henseleit pH 7.4, 32° C., histamine 10^-6 g.ml^-1, 30 minutes; read-out: EC50 (average effective concentration of the H2-antagonists, inhibition of histamine-induced tachycardia)
Sequence (P47747 whole entry): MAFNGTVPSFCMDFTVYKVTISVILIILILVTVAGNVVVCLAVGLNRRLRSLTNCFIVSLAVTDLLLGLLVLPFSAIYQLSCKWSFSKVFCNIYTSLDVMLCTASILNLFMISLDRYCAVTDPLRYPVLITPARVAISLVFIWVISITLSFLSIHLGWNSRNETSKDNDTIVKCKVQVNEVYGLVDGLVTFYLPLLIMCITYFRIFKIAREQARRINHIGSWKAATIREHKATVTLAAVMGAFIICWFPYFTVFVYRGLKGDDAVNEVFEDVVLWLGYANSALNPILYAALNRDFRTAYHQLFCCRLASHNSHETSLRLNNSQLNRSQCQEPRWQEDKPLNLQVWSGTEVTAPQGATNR
Property measured: EC50 (nM)

> print(dat)
                       structure.smiles                           target.of.assay  property.measured  measured.result
1     Cc1nc(-c2ccc(N=CNC(C)C)cc2)c[nH]1  histamine H2 -receptors (Cavia porcellus, UniProt P47747)               EC50              180
2        CCNC=Nc1ccc(-c2c[nH]c(C)n2)cc1  histamine H2 -receptors (Cavia porcellus, UniProt P47747)               EC50              150
3      C=CCNC=Nc1ccc(-c2c[nH]c(C)n2)cc1  histamine H2 -receptors (Cavia porcellus, UniProt P47747)               EC50              120
4     CC(C)NC=Nc1ccc(-c2c[nH]c(O)n2)cc1  histamine H2 -receptors (Cavia porcellus, UniProt P47747)               EC50              194
5  Cc1nc(-c2ccc(N=CNC(C)(C)C)cc2)c[nH]1  histamine H2 -receptors (Cavia porcellus, UniProt P47747)               EC50              400
